assay target: mAb R24 (anti-GD3 monoclonal antibody, IgG3)
assay details: competitive ELISA: peptide pre-incubated with mAb R24, remaining R24 binding to GD3-coated plate
measure name: concentration giving full inhibition

- GLAPPDYAERFFLIS [GD3-like peptide PGD3-3]: > 600 pmol/mL
- RHAYRSMAEWGFLYS [GD3-like peptide PGD3-4]: > 600 pmol/mL
- ACTPYAMLPGCK [GD3-like peptide PGD3-5]: > 600 pmol/mL
- SVAVPPPADDPSWRY [GD3-like peptide PGD3-6]: > 600 pmol/mL
